Assignment: determine reported TGI for the given compounds.
- System: LOX IMVI melanoma
- Protocol Description: NCI tumour cell line growth inhibition, 48 h

Query string: What is its TGI for LOX IMVI melanoma? Entry: C[N+](C)(C)CC(=O)N/N=C/c1oc(-c2c(O)ccc3ccccc23)c(-c2c(O)ccc3ccccc23)c1[N+](=O)[O-]
Result string: 33.3 µM

Query string: Now the same for CCOc1ccccc1N1C(=O)C(=O)C(c2nc3ccccc3o2)C(=O)C1=O
Result string: > 100 µM

Query string: Can you check Cn1c2ccccc2n2c(N=O)c(-c3ccccc3)nc12 next?
Result string: > 100 µM

Query string: Proceed to CC(C)[C@H](N)C(=O)N1CCC[C@H]1B(O)O
Result string: > 100 µM

Query string: Repeat for the following compound: CC(C)(C)OC(=O)N1CCN(CCn2cc(C(F)(F)F)c3c(Cl)ncnc32)CC1
Result string: 3.24 µM

Query string: How about COc1ccc(C(=O)c2cc(OC)c(OC)c(OC)c2)cc1OC(=O)CCl ?
Result string: > 100 µM

====

- Test system: NCI-H226 lung
- Protocol Description: NCI tumour cell line growth inhibition, 48 h; in the data active means GI50 below about 0.43 µM; inactive means the rest
Can you answer with just one of these options? label 1 (active), label 0 (inactive)

Query string: Hi, do you know how C=C(C)C(=O)O[C@H]1CC(=C)[C@@H]2C[C@H](O)[C@](O)(CCl)[C@@H]2[C@H]2OC(=O)C(=C)[C@@H]21 came out in this test?
Result string: label 0

Query string: What do we get for COC(=O)c1nc(-c2ccccc2)oc1S(=O)(=O)Cc1ccccc1 ?
Result string: label 0

Query string: Moving on to the next compound: CC(C)N(Cc1ccccc1)c1c(S)ssc1=S
Result string: label 0

Query string: Now try CN(C)CCN1C(=O)c2ccccc2N(C)c2ccccc21 .
Result string: label 0

Query string: Would you kindly repeat that for CC/C=C1/C(=O)C=C[C@@H]1C/C=C\CCCC(=O)OC ?
Result string: label 0

Query string: Request: CC1CCC(NC(=O)N(CCCl)N=O)CC1 (configuration not stated)
Result string: label 0

Query string: Please give the result for COc1cc(C(=O)O[C@H](C(=O)NCCCCCNC(=O)[C@@H](OC(=O)c2cc(OC)cc3c(C)cccc23)[C@]2(C)CO2)[C@]2(C)CO2)c2cccc(C)c2c1 too.
Result string: label 0

Query string: Now give it for COc1cc(C[C@H]2c3cc(OC)c(OC)cc3CCN2C)c(Oc2cc3c(cc2OC)-c2c(OC)c(OC)cc4c2[C@H](C3)N(C)CC4)cc1OC too.
Result string: label 0

Query string: Record: COc1cc(NC(C)CCCNC2CN3CCC2CC3)c2ncccc2c1 (configuration not stated)
Result string: label 0

Query string: Then COc1cc(/C=C/C(=O)c2cccc(Nc3nc(Nc4ccccc4)nc(Nc4ccccc4)n3)c2)cc(OC)c1OC ?
Result string: label 0

Query string: Lookup CCN(CC)CCCCNc1c2ccccc2[n+](C)c2c1[nH]c1ccccc12
Result string: label 1

Query string: Would you mind doing COc1cnc2c(c1)C(=O)c1c-2n(CCCn2ccnc2)c(=O)c2cc(F)ccc12 as well?
Result string: label 1

====

So I've got a bunch of compounds here, and I need their TGI values.
- Tested on: HOP-62 NSCLC
- Protocol Description: NCI tumour cell line growth inhibition, 48 h

Query string: Look at this compound and give its reported TGI. Cc1ccc(S(=O)(=O)N/N=C/c2c(O)ccc3ccccc23)cc1
Result string: > 100 µM

Query string: Query CC(C)[C@H](N)C(=O)N1CCC[C@H]1B(O)O next
Result string: > 100 µM

Query string: Also, CCSc1[nH]c(NC(=S)NC(=O)c2ccccc2Cl)c(C(N)=O)c1C(N)=O please.
Result string: > 10 µM

====

- System: K-562 leukemia
- Protocol Description: NCI tumour cell line growth inhibition, 48 h
Consider the following molecules; for each one, report its TGI.
Write the number in µM without appending the unit.

Query string: Please report the recorded TGI for CCN(CC)c1c(C(=O)/C=C/c2ccc(OC)cc2)c(-c2ccccc2)nn(C)c1=O .
Result string: 49.9

Query string: Param item: COc1ccc2cc(C(=O)/C=C/c3ccc(Cl)cc3Cl)ccc2c1
Result string: 14.5

Query string: What do we get for CCCCCCCCCCCCCCCCCCNC(=O)C(N)Cc1ccc(OCc2ccccc2)cn1 (centres undefined) ?
Result string: 95.1

Query string: Can you check COC(=O)c1nc(-c2ccccc2)oc1S(=O)(=O)Cc1ccccc1 next?
Result string: 5.29

Query string: How about CCC[CH2][Sn]1([CH2]CCC)[O]C(=O)c2cccnc2[O]1 ?
Result string: 6.01

Query string: Ok, now Cc1ccc(S(=O)(=O)OC2CSS(=O)CC2OS(=O)(=O)c2ccc(C)cc2)cc1 (centres undefined)
Result string: 21.1

====

- Tested on: NCI-H522 lung
- Protocol Description: NCI tumour cell line growth inhibition, 48 h
Property Label: TGI

Query string: Please give the measured TGI for this molecule: O=C1Nc2ccccc2/C1=C/C(=O)c1coc2c1C(=O)c1ccccc1C2=O
Result string: > 100 µM

Query string: And the next one, COC1(OC)c2no[n+]([O-])c2CCC1O (stereo unspecified) ?
Result string: > 100 µM

Query string: Query CC(C)[C@H](N)C(=O)N1CCC[C@H]1B(O)O next
Result string: > 100 µM

Query string: Another: COc1cc2c(cc1C)NC(=O)/C2=C/c1ccccn1
Result string: > 100 µM

Query string: Follow-up entry: NC1=C(NC(=O)Cc2ccc(F)cc2)C(=O)c2ccccc2C1=O
Result string: > 70.1 µM

Query string: Please give the result for CCCCCCCCCCCCCCCCCCNc1ccn(C2OC(COP(=O)(O)OCC3OC(n4cc(F)c(=O)[nH]c4=O)CC3O)C(O)C2O)c(=O)n1 (stereo unspecified) too.
Result string: > 100 µM

====

For each of the compounds below, state its TGI.
- Tested on: HOP-62 NSCLC
- Protocol Description: NCI tumour cell line growth inhibition, 48 h

Query string: TGI lookup needed for C#Cc1c(F)ccc2cc(O)cc(-c3ncc4c(N5CC6CCC(C5)N6)nc(OC[C@@]56CCCN5C[C@H](F)C6)nc4c3F)c12 , thanks.
Result string: 22.4 µM

Query string: Likewise for CNc1ncnc2c1ncn2C1C=CC(COS(N)(=O)=O)C1 (stereo unspecified) ?
Result string: > 100 µM

Query string: // repeat for Nc1ccnc(=O)[nH]1 and report
Result string: > 100 µM

Query string: Again, but for C=CCNC(=O)NC(=O)CSC1=NNC2(C(=O)N1)c1ccccc1-c1ccccc12
Result string: > 10 µM

Query string: // query: Oc1c(C(Nc2cccc3cccnc23)c2ccccc2)ccc2cccnc12 (stereo unspecified)
Result string: > 100 µM

Query string: Input Cn1cc2ccccc2c1-c1nc(F)nc(F)n1
Result string: > 100 µM

Query string: Also, O=C(CN1CCCCC1)Nc1ccc2sc3ccccc3c(=O)c2n1 please.
Result string: 33.3 µM

Query string: Same thing, different compound: C(#Cc1ccccc1C#Cc1cccs1)c1cccs1
Result string: > 100 µM

Query string: Consider next the compound COC(=O)N/N=C(\Cc1ccccc1)CN(C)C in the same way.
Result string: > 100 µM

Query string: Further, for Cc1cc2c(cc1C)N(C(=O)CCl)CC(=O)N2 ?
Result string: 12 µM

Query string: And what about the compound COc1ccc2[nH]c(O)c(N=NC(=O)c3oc4ccccc4c3C)c2c1 ?
Result string: 4.02 µM

====

- Tested on: SNB-75 CNS
- Protocol Description: NCI tumour cell line growth inhibition, 48 h
Assign TGI to each entry below.
Report as a plain number; the unit µM is understood.

Query string: Entry [N-]=[N+]=Nc1ccccc1C(=O)N1C(=O)c2ccccc2C(=O)N(C(=O)c2ccccc2N=[N+]=[N-])c2ccccc21 : reported TGI = ?
Result string: 64

Query string: // next record Cn1c2ccccc2n2c(N=O)c(-c3ccccc3)nc12
Result string: 49.8

====

I'd appreciate it if you could supply TGI values for the items below.
- System: KM12 colon
- Protocol Description: NCI tumour cell line growth inhibition, 48 h

Query string: Data request, read-out TGI, for CCCCNc1nc(C#N)c(N)s1
Result string: > 100 µM

Query string: Here is the next compound: CCC(C)(CC(C)(C)C(=O)NCC(=O)NC(Cc1ccccc1)C(=O)NC(Cc1ccccc1)C(=O)NCC(=O)NC1CC(OC2CC(O)(C(=O)CO)Cc3c(O)c4c(c(O)c32)C(=O)c2c(OC)cccc2C4=O)OC(C)C1O)C(=O)NCC(C)O (stereo unspecified)
Result string: > 150 µg/mL

Query string: Consider next the compound COc1ccc(-c2c[nH]c(C(=O)O)c2-c2cc(OC)c(OC)c(OC)c2)cc1 in the same way.
Result string: > 100 µM

Query string: Entry to check: CCc1n[nH]c(=O)n1/N=C/c1c(O)ccc2ccccc12
Result string: > 100 µM

Query string: Here is the next compound: CNc1ncnc2c1ncn2C1C=CC(COS(N)(=O)=O)C1 (stereo unspecified)
Result string: > 100 µM

Query string: Try the compound CCc1c2c([nH]c(=S)c1C#N)CCC2
Result string: > 100 µM
